PROTOCOL_DETAILS: Cytometry Cell-Based qHTS for Inhibitors of the mTORC1 Signaling Pathway in MEF cells (AID 2668);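 further: Tsc2-/- p53-/- mouse embryonic fibroblasts stably re-expressing wild-type Tsc2; percent cells positive for phospho-rpS6 Ser235/236 relative to propidium iodide stain; plate controls were DMSO wells for no effect and 7.5 nM rapamycin control wells for full effect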
DETAILS: mTORC1 pathway readout; series mostly up to 38.3 µM
Inconclusive results are not listed. Activity calls are given as the source filed them. The call rests on the fitted dose curve; in most records, active means well fitted inhibition curve with a large enough effect; inconclusive means small, poorly fitted or top-dose-only effect; inactive means flat fitted curve, though single readings scatter.
PROPERTY_NAME: outcome

// below: answered molecules
Prompt: Give outcome for CNc1ncnc2c1ncn2[C@H]1C[C@H](OP(=O)(O)O)[C@@H](COP(=O)(O)O)O1
Response: inactive

Prompt: Give outcome for COc1ccc(CCN(C)CCc2ccc(OC)c(OC)c2)cc1OC
Response: inactive

Prompt: Give outcome for CC(=O)NCCc1c[nH]c2ccc(O)cc12
Response: inactive

Prompt: Give outcome for CN1CCC2(CCN3CCc4c(oc5ccccc45)C3C2)N(C)C1=O (stereo not drawn)
Response: inactive

Prompt: Give outcome for CCCc1c(-c2ccc(O)cc2)nn(-c2ccc(O)cc2)c1-c1ccc(O)cc1
Response: inactive

Lab note: each molecule below needs its outcome filled in.
1. CC(=O)SC1CC2=CC(=O)CC[C@]2(C)C2CC[C@@]3(C)C(CC[C@@]34CCC(=O)O4)C12 (stereo partly drawn)
2. N[C@H](C(=O)O)[C@H](Cc1ccccc1)C(=O)O
3. Cc1nc(N=Nc2cc(S(=O)(=O)O)c3cc([N+](=O)[O-])cc(S(=O)(=O)O)c3c2)c(COP(=O)(O)O)c(C=O)c1O
4. CCCOC(=O)c1c(-c2ccccc2)nc(CC)c(C(=O)SCC)c1CCC
5. Cc1nc(N=Nc2ccc(C(=O)O)cc2)c(COP(=O)(O)O)c(C=O)c1O

Response:
["inactive", "inactive", "inactive", "inactive", "inactive"]

* * *

PROTOCOL_DETAILS: qHTS Assay for Identifying Gametocytocidal Compounds (AID 743244);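 further: on the % scale 0 is the no-effect control and ±100 the full control effect; actives lower the fluorescent signal which means gametocytes are killed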
DETAILS: P. falciparum 3D7 stage III-V gametocytes, alamarBlue, 72 h; hits give low values
Inconclusive results are not listed.
hey, just use Y if measured max response is less than 10%, otherwise N

Some solved entries appear below for comparison.
Prompt: Just wondering, is max response of O=C(O)C1=CCCN(CCON=C(c2ccccc2)c2ccccc2)C1 below 10%?
Response: Y

Prompt: Just wondering, is max response of CC(/C=C/c1cccc(Oc2ccc(F)cc2)c1)N(O)C(N)=O (stereo not drawn) below 10%?
Response: N

Prompt: Just wondering, is max response of COc1ccccc1N1CCN(CCCCNC(=O)c2ccc3ccccc3c2)CC1 below 10%?
Response: N

Prompt: Just wondering, is max response of Nn1nnc2ccccc21 below 10%?
Response: N

Prompt: Just wondering, is max response of COc1ccc(CCn2nnnc2C2(c3ccc(C)cc3)CC2)cc1 below 10%?
Response: N

Prompt: Just wondering, is max response of O=[N+]([O-])c1cccc2c(Br)[nH]nc12 below 10%?
Response: Y

Prompt: Just wondering, is max response of C[C@H](O)C(=O)C1=Nc2c(nc(N)[nH]c2=O)NC1 below 10%?
Response: N

Prompt: Just wondering, is max response of COc1cc(C(O)C(=O)O)ccc1O (stereo not drawn) below 10%?
Response: N

More entries:
Prompt: Just wondering, is max response of OC[C@H]1NC[C@@H](O)[C@@H]1O below 10%?
Response: N

Prompt: Just wondering, is max response of OC[C@H]1O[C@H](n2cnc3c(N[C@H]4CCC[C@@H]4O)ncnc32)[C@H](O)[C@@H]1O below 10%?
Response: N

Prompt: Just wondering, is max response of CN[C@H](CC(=O)O)C(=O)O below 10%?
Response: N

Prompt: Just wondering, is max response of C/C(=C\c1ccc(C(=O)O)cc1)c1ccc2c(c1)C(C)(C)CCC2(C)C below 10%?
Response: N

Prompt: Just wondering, is max response of N=C(N)c1ccc(N)cc1 below 10%?
Response: Y

* * *

TARGET: ATPase family AAA domain-containing protein 5 (Homo sapiens)
PROTOCOL_DETAILS: Validation screen for small molecules that inhibit ELG1-dependent DNA repair in human embryonic kidney (HEK293T) cells expressing luciferase-tagged ELG1 (AID 493107); further: nearly all actives have a fitted effect of over 70% in size
DETAILS: HEK293T ELG1-luciferase level, luminescence, 5-fluorouridine co-treatment, 16 h; series mostly up to 46.1 µM
Excerpt: NIH Molecular Libraries Probe Production Network [MLPCN] NIH Chemical Genomics Center [NCGC] Assay Provider: Kyungjae Myung, NHGRI, NIH Keywords: MLPCN, qHTS, NCGC, genotoxicity, cancer Cancer cells divide rapidly compared to normal cells in the body. During cell division, cancer cells need to duplicate their genome by DNA replication. The failure of genome duplication leads to cancer cells' death. […] With this in mind, we developed a quantitative high-throughput ELG1-luciferase reporter gene assay. […]
Results filed as inconclusive are left out. Calls of active or inactive are those of the source. Calls come from the whole dose curve; as a rule, active = well fitted inhibition curve with a large enough effect; inconclusive = small, poorly fitted or top-dose-only effect, or effect the other way; inactive = flat fitted curve, though single readings scatter.
Field 'call' accepts active, inactive

Prompt: Any idea what this test logged for O=c1onc2n1-c1cc(Br)ccc1OC2 ?
Response: inactive

More entries:
Prompt: Any idea what this test logged for CNc1ncnc2c1ncn2[C@H]1C[C@H](OP(=O)(O)O)[C@@H](COP(=O)(O)O)O1 ?
Response: inactive

Prompt: Any idea what this test logged for CCN(CC)CCCCCCCCOC(=O)c1cc(OC)c(OC)c(OC)c1 ?
Response: inactive

Prompt: Any idea what this test logged for CCCCCCC/C=C\CCCCCCCCC(=O)O ?
Response: inactive

Prompt: Any idea what this test logged for Brc1c(Br)c(Br)c2[nH]cnc2c1Br ?
Response: active

Prompt: Any idea what this test logged for CCCN(CCc1ccccc1)C1CCc2c(O)cccc2C1 (stereo unspecified) ?
Response: inactive

Prompt: Any idea what this test logged for O=c1cc(-c2ccccc2F)[nH]c2cc3c(cc12)OCO3 ?
Response: inactive

Prompt: Any idea what this test logged for O=C(O)C1CCNCC1 ?
Response: inactive

Prompt: Any idea what this test logged for COc1ccc(-c2cc3ncc(C)n3c(Nc3ncccc3C(N)=O)n2)cc1OC ?
Response: active

Prompt: Any idea what this test logged for OC1(c2ccc(Cl)cc2)CCN(Cc2c[nH]c3ccccc23)CC1 ?
Response: inactive

Prompt: Any idea what this test logged for Nn1nnc2ccccc21 ?
Response: inactive

Prompt: Any idea what this test logged for Cn1c(=O)c2[nH]c(C3CCCC3)nc2n(C)c1=O ?
Response: inactive

Prompt: Any idea what this test logged for N=C(N)c1ccc(N)cc1 ?
Response: inactive

Prompt: Any idea what this test logged for O=C(O)/C=C/c1ccc(O)c(O)c1 ?
Response: inactive

Prompt: Any idea what this test logged for COc1ccc(CCn2nnnc2C2(c3ccc(C)cc3)CC2)cc1 ?
Response: inactive

Prompt: Any idea what this test logged for C#CCn1c(=O)c2c(ncn2C)n(C)c1=O ?
Response: inactive

* * *

TARGET: Peroxisome proliferator-activated receptor alpha (Homo sapiens) (UniProt Q07869)
Sequence (Q07869 whole entry, looked up): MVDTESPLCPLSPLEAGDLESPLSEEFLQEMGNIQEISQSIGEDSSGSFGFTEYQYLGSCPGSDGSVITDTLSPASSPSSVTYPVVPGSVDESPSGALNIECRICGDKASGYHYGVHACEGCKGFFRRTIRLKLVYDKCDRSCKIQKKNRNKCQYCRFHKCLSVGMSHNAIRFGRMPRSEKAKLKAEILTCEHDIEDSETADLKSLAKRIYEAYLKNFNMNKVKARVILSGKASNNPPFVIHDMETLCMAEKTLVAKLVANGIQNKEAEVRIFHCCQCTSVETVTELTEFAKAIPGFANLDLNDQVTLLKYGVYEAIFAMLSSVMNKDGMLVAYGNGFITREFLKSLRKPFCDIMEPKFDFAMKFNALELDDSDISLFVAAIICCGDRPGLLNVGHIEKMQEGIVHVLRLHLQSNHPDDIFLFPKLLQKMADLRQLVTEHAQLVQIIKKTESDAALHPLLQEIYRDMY
PROTOCOL_DETAILS: qHTS assay for small molecule agonists of the peroxisome proliferator-activated receptor alpha (PPARalpha) signaling pathway (AID 651778); further: % of control where 0% means no effect
DETAILS: PathHunter PPARalpha complementation, chemiluminescence, 6 h; hits give high values
Calls of active or inactive are those of the source. The call rests on the fitted dose curve; in most records, active means well fitted activation curve with a large enough effect; inconclusive means small, poorly fitted or top-dose-only effect; inactive means flat fitted curve, though single readings scatter.
I'd be grateful if you could share measured max response for these entries.

// below: answered compounds
Prompt: Give max response for CCCc1c(-c2ccc(O)cc2)nn(-c2ccc(O)cc2)c1-c1ccc(O)cc1
Response: -1.98% (inactive)

Prompt: Give max response for CC[C@@H]1Cc2cc(O)ccc2C2=C1c1ccc(O)cc1C[C@H]2CC
Response: -2.38% (inactive)

Prompt: Give max response for CC(=O)C(C)=O
Response: -2.24% (inactive)

Now, please, on to the next compound.
Prompt: Give max response for NC(=O)c1ccccc1
Response: 0.54% (inactive)

* * *

TARGET: Furin (Homo sapiens) (UniProt P09958)
Sequence (P09958 whole entry, looked up): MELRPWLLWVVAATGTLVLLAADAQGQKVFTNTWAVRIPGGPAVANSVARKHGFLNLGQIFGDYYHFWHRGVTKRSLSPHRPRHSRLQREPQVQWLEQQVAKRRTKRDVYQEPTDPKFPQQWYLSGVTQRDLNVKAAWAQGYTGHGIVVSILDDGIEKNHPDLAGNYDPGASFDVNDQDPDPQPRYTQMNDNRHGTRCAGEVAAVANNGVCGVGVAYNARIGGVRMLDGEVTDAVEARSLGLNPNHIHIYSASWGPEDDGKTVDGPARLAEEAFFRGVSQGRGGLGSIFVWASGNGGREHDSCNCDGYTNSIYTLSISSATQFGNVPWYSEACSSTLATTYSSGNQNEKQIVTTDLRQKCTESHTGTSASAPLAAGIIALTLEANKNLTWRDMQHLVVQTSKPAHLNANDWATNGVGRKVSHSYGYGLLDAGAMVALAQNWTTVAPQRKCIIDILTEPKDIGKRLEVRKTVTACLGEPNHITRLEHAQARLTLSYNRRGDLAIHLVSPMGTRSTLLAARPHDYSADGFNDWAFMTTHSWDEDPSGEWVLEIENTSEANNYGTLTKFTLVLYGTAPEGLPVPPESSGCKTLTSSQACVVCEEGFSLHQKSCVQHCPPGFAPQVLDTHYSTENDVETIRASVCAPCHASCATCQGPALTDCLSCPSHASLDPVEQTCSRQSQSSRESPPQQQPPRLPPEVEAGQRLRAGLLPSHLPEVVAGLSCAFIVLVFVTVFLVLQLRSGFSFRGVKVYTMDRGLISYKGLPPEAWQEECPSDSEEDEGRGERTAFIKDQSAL
PROTOCOL_DETAILS: Furin counterscreen qHTS for Zika virus inhibitors (AID 1347149); further: nearly all actives have a fitted effect of over 70% in size; further: potency means the concentration at half of the fitted maximal effect
DETAILS: furin enzymatic counterscreen, fluorogenic substrate; series mostly up to 57.5 µM
Records with an inconclusive call do not appear. The source made the active and inactive calls. Calls follow the shape of the dose curve; as a rule, active = well fitted inhibition curve with a large enough effect; inconclusive = small, poorly fitted or top-dose-only effect; inactive = no such curve, though single readings can be large or run the other way.
PROPERTY_NAME: Potency

// below: answered compounds
Prompt: Give Potency for Nc1ccc(-c2ccc3ccccc3n2)cc1
Response: inactive

Prompt: Give Potency for C=CCN1CCc2c(cc(O)c(O)c2Br)[C@@H](c2ccccc2)C1
Response: inactive

Prompt: Give Potency for O=C1NC(=O)c2cc(Nc3ccccc3)c(Nc3ccccc3)cc21
Response: inactive

Prompt: Give Potency for COc1cc2c(CCNC(C)=O)c[nH]c2cc1O
Response: 27.1 µM (active)

Prompt: Give Potency for Cc1nc(N=Nc2cc(S(=O)(=O)O)c3cc([N+](=O)[O-])cc(S(=O)(=O)O)c3c2)c(COP(=O)(O)O)c(C=O)c1O
Response: inactive

Lab note: each compound below needs its Potency filled in.
1. CCCC[C@@]1(C2CCCC2)Cc2cc(OCC(=O)O)c(Cl)c(Cl)c2C1=O
2. CNC(=O)c1cc2c(cn1)[nH]c1ccccc12
3. Cn1c(=O)c2[nH]c(-c3ccc(S(=O)(=O)O)cc3)nc2n(C)c1=O

Response:
inactive
24.1 µM (active)
12.1 µM (active)

Lab note: each compound below needs its Potency filled in.
1. O=c1[nH]c(=S)[nH]c(-c2ccccc2)c1Cc1c(O)ccc2ccccc12
2. CCc1ccc2c(-c3cccc(Cl)c3)nc(=O)n(CC)c2n1
3. O=C(O)c1ccccc1Nc1cccc(OCc2ccc3ccccc3n2)c1

Response:
1. inactive
2. 21.5 µM (active)
3. inactive
